# SYSTEM_TESTED: recombinant human CD3ε/δ heterodimer (human) (UniProt P07766)
# Sequence (P07766 23-126, stated change not applied, chain 1 of 2): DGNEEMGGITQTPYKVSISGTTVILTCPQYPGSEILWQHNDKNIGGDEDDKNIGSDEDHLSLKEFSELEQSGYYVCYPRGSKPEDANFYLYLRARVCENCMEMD
# Sequence (P04234 22-105, stated change not applied, chain 2 of 2, further chain): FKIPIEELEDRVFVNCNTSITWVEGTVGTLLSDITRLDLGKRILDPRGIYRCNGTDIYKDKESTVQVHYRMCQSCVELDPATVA
# TEST_DESCRIPTION: BLI (Octet), antigen on anti-Penta His sensor, antibody 50 nM
OBSERVED_PROPERTY: pKd
Kindly note that pKd refers to -log10 of the concentration in mol/L and answer with the value alone.

// known answers, use as guide
C16 (antibody, human IgG1, lambda, L234A L235A, V domains shown) VH: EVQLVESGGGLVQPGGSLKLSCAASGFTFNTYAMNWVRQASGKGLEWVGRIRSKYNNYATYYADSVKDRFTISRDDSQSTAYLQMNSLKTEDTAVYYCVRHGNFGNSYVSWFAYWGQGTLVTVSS VL: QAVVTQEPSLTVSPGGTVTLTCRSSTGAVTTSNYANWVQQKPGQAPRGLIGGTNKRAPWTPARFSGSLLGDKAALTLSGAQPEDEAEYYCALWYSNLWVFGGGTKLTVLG
9.38
B16 (antibody, human IgG1, lambda, L234A L235A, V domains shown) VH: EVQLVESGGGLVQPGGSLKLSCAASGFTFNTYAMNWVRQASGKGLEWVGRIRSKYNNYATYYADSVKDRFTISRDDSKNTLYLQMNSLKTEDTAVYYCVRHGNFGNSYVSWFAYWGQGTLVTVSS VL: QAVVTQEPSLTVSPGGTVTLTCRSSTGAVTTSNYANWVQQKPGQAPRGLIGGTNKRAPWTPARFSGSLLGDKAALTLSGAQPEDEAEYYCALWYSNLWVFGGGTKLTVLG
9.35

Moving on to another binder below.
## Task Look at this binder and give its reported pKd. G15 (antibody, human IgG1, lambda, L234A L235A, V domains shown) VH: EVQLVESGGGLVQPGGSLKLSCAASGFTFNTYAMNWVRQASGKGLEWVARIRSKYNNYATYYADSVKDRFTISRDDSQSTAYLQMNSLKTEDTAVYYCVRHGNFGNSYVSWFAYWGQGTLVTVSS VL: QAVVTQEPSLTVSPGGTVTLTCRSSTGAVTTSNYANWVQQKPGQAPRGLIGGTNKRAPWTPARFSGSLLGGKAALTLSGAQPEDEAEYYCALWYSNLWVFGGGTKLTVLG
## Result 8.80
